Assignment: determine reported concentration at 45 min for the given compounds.
# method-summary: Mice pharmacokinetic study after oral administration of a mixture of 11 TKIs
# Format: in vivo, FVB wild-type mice
# reported-conditions: male, FVB wild-type, mouse, whole blood, po, 1 mg/kg
Where a name gives a salt, the structure may show the parent alone.
Write the numeric value and append its unit.

Using the record for "Cc1ccc(NC(=O)c2ccc(CN3CCN(C)CC3)cc2)cc1Nc1nccc(-c2cccnc2)n1" , report its concentration at 45 min.
68.8 ng/mL

Using the record for "CNC(=O)c1ccccc1Sc1ccc2c(/C=C/c3ccccn3)n[nH]c2c1" , report its concentration at 45 min.
46.1 ng/mL

Using the record for "Cc1nc(Nc2ncc(C(=O)Nc3c(C)cccc3Cl)s2)cc(N2CCN(CCO)CC2)n1" , report its concentration at 45 min.
34.3 ng/mL

Using the record for CCN(CC)CCNC(=O)c1c(C)[nH]c(/C=C2\C(=O)Nc3ccc(F)cc32)c1C [Sunitinib, sunitinib malate] , report its concentration at 45 min.
22.8 ng/mL

Using the record for C#Cc1cccc(Nc2ncnc3cc(OCCOC)c(OCCOC)cc23)c1 [Erlotinib, erlotinib hydrochloride] , report its concentration at 45 min.
120 ng/mL

Using the record for "Cc1cn(-c2cc(NC(=O)c3ccc(C)c(Nc4nccc(-c5cccnc5)n4)c3)cc(C(F)(F)F)c2)cn1" , report its concentration at 45 min.
69 ng/mL

Using the record for "COc1cc2ncnc(Nc3ccc(F)c(Cl)c3)c2cc1OCCCN1CCOCC1" , report its concentration at 45 min.
36.7 ng/mL

Using the record for "CS(=O)(=O)CCNCc1ccc(-c2ccc3ncnc(Nc4ccc(OCc5cccc(F)c5)c(Cl)c4)c3c2)o1" , report its concentration at 45 min.
21.4 ng/mL
